Assay: JC-1 mitochondrial potential readout, lung cancer cells – cell-based, A549, JC-1 fluorescence, basal, 24 h, 100 nL, profiling panel (AID 1138);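 note: A549 lung adenocarcinoma cells under basal conditions with no added stimulus; test concentration not given here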
Conditions: higher = more signal
Criterion: z-score meeting or surpassing 1. Met: t. Not met: f.

Record excerpt, results attached:
- compound-structure-string: "COc1ccc([Si](C)(C)[C@@H]2[C@@H](CCO)O[C@]3(C(=O)N(Cc4ccccc4)c4ccc(N5CCCCC5=O)cc43)[C@H]2C)cc1"
  class-label: "f"
- compound-structure-string: "C=CCOC(=O)[C@@H]1[C@H]2C(=O)O[C@H](c3ccccc3)[C@H](c3ccccc3)N2[C@H](c2ccc(OCCOC(=O)[C@H]3C[C@H]4C(=O)N[C@@H](Cc5ccccc5)C(=O)N4[C@H]3c3cccc(OCCO)c3)cc2)[C@@]12C(=O)Nc1ccc(I)cc12"
  class-label: "f"
- compound-structure-string: "COCCOC(=O)N1C(=O)[C@@]2(c3cc(C#CC4(O)CCCCCC4)ccc31)[C@H](C(=O)NC[C@H](O)c1ccccc1)[C@H]1C(=O)O[C@H](c3ccccc3)[C@H](c3ccccc3)N1[C@@H]2c1ccc(OCCO)cc1"
  class-label: "f"
- compound-structure-string: "[N-]=[N+]=NCc1ccccc1[C@H]1OC(c2ccc(OCCCO)cc2)=N[C@@]1(Cc1ccccc1)C(N)=O"
  class-label: "t"

Please turn your attention to the following entry.
Decide: is the reported value of z-score for O=[N+]([O-])c1ccc(C[n+]2ccc(-c3ccc(CO)cc3)cc2)o1 equal to or greater than 1?
f

---

Biological target: Torsin-1A-interacting protein 1 (Homo sapiens) (UniProt Q5JTV8)
Sequence (Q5JTV8 whole entry, looked up): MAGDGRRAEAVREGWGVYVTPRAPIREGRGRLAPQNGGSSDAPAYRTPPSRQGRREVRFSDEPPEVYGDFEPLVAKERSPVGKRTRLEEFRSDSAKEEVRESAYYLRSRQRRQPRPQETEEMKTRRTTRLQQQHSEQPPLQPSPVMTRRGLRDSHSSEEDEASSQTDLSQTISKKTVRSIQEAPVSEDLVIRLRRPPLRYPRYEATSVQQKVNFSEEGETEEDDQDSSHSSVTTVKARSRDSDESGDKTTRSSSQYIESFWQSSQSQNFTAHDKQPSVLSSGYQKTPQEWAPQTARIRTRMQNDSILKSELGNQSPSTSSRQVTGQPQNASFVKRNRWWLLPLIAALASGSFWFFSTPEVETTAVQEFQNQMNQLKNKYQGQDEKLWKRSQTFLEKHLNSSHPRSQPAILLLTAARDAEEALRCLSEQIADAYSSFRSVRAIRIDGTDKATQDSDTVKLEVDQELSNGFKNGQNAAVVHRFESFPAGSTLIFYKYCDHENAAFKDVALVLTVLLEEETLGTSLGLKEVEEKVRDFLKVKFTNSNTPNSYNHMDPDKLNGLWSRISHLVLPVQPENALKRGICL
Test: compound microarray binding of lysate hLAP1 – cell lysate, small-molecule microarray, COS7 lysate, 635/667 nm fluorescence, primary screen (AID 1116)
Settings: 635 nm fluorescence, higher = more signal
test-readout: composite z-score
Returns: the value as a bare number; no unit string appended.

# count of solved cases: 3
- compound-structure-string: "O=C1O[C@@H](c2ccccc2)[C@@H](c2ccccc2)N2[C@@H](c3ccc(O)cc3)[C@]3(C(=O)Nc4ccc(C#CC5=CCCCC5)cc43)[C@@H](C(=O)Nc3nc4ccccc4s3)[C@H]12"
  composite z-score: 0.825
- compound-structure-string: "COCCCNC(=O)[C@]1(CCS(=O)(=O)c2ccccc2)N=C(c2ccc(OCCCO)cc2)O[C@@H]1c1ccccc1"
  composite z-score: 1.8
- compound-structure-string: "C[N+](C)(C)CCCCCCNC(=O)[C@H]1C[C@H]2C(=O)N3CCC[C@H]3C(=O)N2[C@H]1c1cccc(OCCO)c1"
  composite z-score: 1.67

Now turn to the next compound.
Report composite z-score on Torsin-1A-interacting protein 1 (Homo sapiens) (UniProt Q5JTV8) for this entry: COC(=O)[C@@]1(Cc2ccccc2N=[N+]=[N-])N=C(c2ccc(OCCCO)cc2)O[C@H]1c1ccccc1
1.37

---

Experiment: probe aLefty2 binding to arrayed compounds – biochemical, biotinylated probe, 635/667 nm fluorescence, primary screen (AID 1094);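 note: score merges spot fluorescence near 667 nm with spot signal-to-noise ratio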
Conditions: small-molecule microarray, higher = more signal
# label = True if composite z-score >= -0.1 else False

Examples from the recorded data:
- compound: "CN(C)CCCCCCNC(=O)[C@@H]1C[C@@H]2C(=O)NCC(=O)N2[C@@H]1c1ccc(O)cc1"
  class-label: "False"
- compound: "COCCOC(=O)N1C(=O)[C@@]2(c3cc(C#CC4(O)CCCCCC4)ccc31)[C@H](C(=O)N1CCc3cc(OC)c(OC)cc3C1)[C@H]1C(=O)O[C@H](c3ccccc3)[C@H](c3ccccc3)N1[C@@H]2c1ccccc1OCCO"
  class-label: "True"
- compound: "CCCC=C(CCC)[C@@H](NS(=O)(=O)CC)c1ccccc1"
  class-label: "True"
- compound: "N#Cc1ccc(NN2C(C(O)c3ccco3)C=CC3C(=O)N(c4ccccc4)C(=O)C32)cc1 (centres undefined)"
  class-label: "True"
- compound: "COC(=O)[C@@]1(Cc2ccc(OC)cc2)[C@H]2c3cc(C(=O)N4CCCC4)n(CCc4ccc(O)c(OC)c4)c3C[C@H]2CN1C(=O)c1ccccc1"
  class-label: "True"

With those in mind, consider the next compound.
Is the recorded value of composite z-score equal to or greater than -0.1 for this compound? C/C=C/[C@@H](CCn1cc([C@H](O)c2ccccc2)nn1)[Si](C)(C)c1ccc(OC)cc1
False

---

Tested on: Human papillomavirus type 1a E7 protein (residues 1-88)
Experiment: HPV1a E7 small-molecule binders, primary screen, biochemical, small-molecule microarray, residues 1-88, 635 nm (AID 1129)
Details: small-molecule microarray binding, fluorescence 635 nm; higher = more signal
test-readout: composite z-score
Just the number, please.

Here is how some compounds turned out for composite z-score.
- compound: "CCOC(=O)C[C@H]1[C@H](OC(=O)Cc2ccc3c(c2)OCO3)[C@@H](NC(=O)c2ccccc2)c2cc(OCCCO)ccc2N1C(=O)c1ccccc1"
  test-readout: "composite z-score"
  test-value: 0.669
- compound: "Cc1ccc(S[C@]2(C(=O)O)CC(=O)N(Cc3ccccc3C(F)(F)F)[C@@H]2c2ccc(CO)cc2)cc1"
  test-readout: "composite z-score"
  test-value: -0.543
- compound: "O=C(CS)NCCCCCNC(=O)[C@@H]1C[C@@H]2C(=O)N3CCC[C@H]3C(=O)N2[C@@H]1c1ccc(O)cc1"
  test-readout: "composite z-score"
  test-value: 1.12
- compound: "CCCC=C(CCC)[C@@H](NS(=O)(=O)c1cccc2cccnc12)c1ccc(C(=O)OC)cc1"
  test-readout: "composite z-score"
  test-value: 0.36
- compound: "COC(=O)[C@H]1N=C(c2ccc(OCCCO)cc2)O[C@H]1c1ccccc1CN=[N+]=[N-]"
  test-readout: "composite z-score"
  test-value: -0.189

Return reported composite z-score. Input compound: C=C(COC)C(=O)CC[C@H](OC(=O)c1ccccc1-c1ccccc1C(=O)O)c1ccc(OCCO)cc1
1.08

---

Experiment: COS7 lysate on small-molecule microarray, probe aHis, 635 nm (AID 1123);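 note: z-score combines 667nm fluorescence intensity with signal-to-noise per printed compound spot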
Conditions: COS7 cell lysate, fluorescence, higher = more signal
Quick reference for composite z-score among some compounds
Would you mind answering with just the numeric figure?

- compound: "COC(=O)[C@@]1(Cc2ccc(F)cc2)[C@H]2c3cc(C(=O)N(C)C)n(CCSCCO)c3C[C@H]2CN1C(=O)c1ccccc1"
  composite z-score: 2.15

Let me know recorded composite z-score for C=C(CCCC)/C(=C/C[C@@H](OC(=O)c1ccncc1)c1ccccc1OCCO)c1cc(C(=O)OC)ccc1OC , thanks.
1.28

Find the measured composite z-score of O=C1NC(=O)C2C1C=CC(C(O)CCc1ccccc1)N2Nc1ccccn1 (stereo unspecified) and report it.
1.02

---

# maps each entry to its composite z-score
Test: probe aNog binding to arrayed compounds – biochemical, biotinylated probe, 635/667 nm fluorescence, primary screen (AID 1115);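 note: probe is biotinylated aNog protein used at 0.15 µg/mL for 1 h at 4 C; z-score combines 667 nm fluorescence of each spot with its signal to noise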
Conditions: small-molecule microarray, higher = more signal
Answer as a number with no unit attached.

Here is how some molecules turned out for composite z-score.
- molecule: "C=CCN1C(=O)[C@@]2(O[C@@H](CCn3cc([C@H](O)c4ccccc4)nn3)[C@H]([Si](C)(C)c3ccc(OC)cc3)[C@H]2C)c2cc(NC(=O)c3ccc(OC)cc3)ccc21"
  test-value: 0.338
- molecule: "COc1cc2c(cc1OC)CN(C(=O)[C@@H]1[C@H]3C(=O)O[C@H](c4ccccc4)[C@H](c4ccccc4)N3[C@H](c3ccc(O)cc3)[C@@]13C(=O)Nc1ccc(C#CCNC(N)=O)cc13)CC2"
  test-value: -0.115
- molecule: "CC(C)(C)OC(=O)CC[C@]1(C(=O)N2CCCCC2)N=C(c2ccc(OCCCO)cc2)O[C@H]1c1ccccc1CN=[N+]=[N-]"
  test-value: 0.659
- molecule: "CC(C)C[C@@H]1NC(=O)[C@@H]2C[C@H](C(=O)NCCCC[N+](C)(C)C)[C@H](c3cccc(OCCO)c3)N2C1=O"
  test-value: -0.198
- molecule: "Cc1ccc(S[C@]2(C(=O)O)CC(=O)N(Cc3ccccc3C(F)(F)F)[C@@H]2c2ccc(CO)cc2)cc1"
  test-value: -0.321
- molecule: "C[N+](C)(C)CCCCCCNC(=O)[C@H]1C[C@H]2C(=O)N3CCC[C@H]3C(=O)N2[C@H]1c1cccc(OCCO)c1"
  test-value: -0.381
- molecule: "CCC[C@@H]1C[C@@]1(CCC)[C@@H](NC(=O)c1cccs1)c1ccc(Cl)cc1"
  test-value: 1.39
- molecule: "[N-]=[N+]=NCc1ccccc1C[C@]1(C(=O)NCCN2CCOCC2)COC(c2ccc(OCCCO)cc2)=N1"
  test-value: -0.509
- molecule: "CN(C)C(=O)[C@@]1(CCC(=O)OC(C)(C)C)N=C(c2ccc(OCCCO)cc2)O[C@H]1c1ccccc1N=[N+]=[N-]"
  test-value: 0.948
- molecule: "COc1cc(C(O)C2C=CC3C(=O)NC(=O)C3N2Nc2ccc(Cl)cc2Cl)cc(OC)c1OC (centres undefined)"
  test-value: 1.22

Quickly give me recorded composite z-score for COC(=O)[C@@]1(Cc2ccccc2)[C@H]2c3cc(C(=O)N(C)C)n(Cc4ccccn4)c3C[C@H]2CN1C(=O)c1ccccc1
0.85

Give reported composite z-score value for COc1ccc(C#Cc2ccc3c(c2)[C@]2(C(=O)N3)[C@H](C(N)=O)[C@H]3C(=O)O[C@H](c4ccccc4)[C@H](c4ccccc4)N3[C@@H]2c2ccc(O)cc2)cc1
-0.215

Supply measured composite z-score of C=CC[C@@]1(C(=O)NCC(O)CO)N=C(c2ccc(OCCCO)cc2)O[C@@H]1c1ccccc1 (some centres undefined) in your reply.
-0.419

Give the reported value of composite z-score for this record: CN(C)CCCNC(=O)[C@@]1(Cc2ccccc2I)c2ccccc2C(=O)N(Cc2ccccc2Cl)[C@H]1c1ccc(CO)cc1
-0.784
